# Lookup of reported pIC50 keyed by entry
experimental_target: mutant cKIT (560-576 and V654A) in GIST430/654 cell line (Homo sapiens (Human), UniProt P10721, DEL560-576/V654A)
Sequence (P10721 other isoform, or with tags, fused parts or gaps V654A/del 1-25/del 560-576 limits assumed): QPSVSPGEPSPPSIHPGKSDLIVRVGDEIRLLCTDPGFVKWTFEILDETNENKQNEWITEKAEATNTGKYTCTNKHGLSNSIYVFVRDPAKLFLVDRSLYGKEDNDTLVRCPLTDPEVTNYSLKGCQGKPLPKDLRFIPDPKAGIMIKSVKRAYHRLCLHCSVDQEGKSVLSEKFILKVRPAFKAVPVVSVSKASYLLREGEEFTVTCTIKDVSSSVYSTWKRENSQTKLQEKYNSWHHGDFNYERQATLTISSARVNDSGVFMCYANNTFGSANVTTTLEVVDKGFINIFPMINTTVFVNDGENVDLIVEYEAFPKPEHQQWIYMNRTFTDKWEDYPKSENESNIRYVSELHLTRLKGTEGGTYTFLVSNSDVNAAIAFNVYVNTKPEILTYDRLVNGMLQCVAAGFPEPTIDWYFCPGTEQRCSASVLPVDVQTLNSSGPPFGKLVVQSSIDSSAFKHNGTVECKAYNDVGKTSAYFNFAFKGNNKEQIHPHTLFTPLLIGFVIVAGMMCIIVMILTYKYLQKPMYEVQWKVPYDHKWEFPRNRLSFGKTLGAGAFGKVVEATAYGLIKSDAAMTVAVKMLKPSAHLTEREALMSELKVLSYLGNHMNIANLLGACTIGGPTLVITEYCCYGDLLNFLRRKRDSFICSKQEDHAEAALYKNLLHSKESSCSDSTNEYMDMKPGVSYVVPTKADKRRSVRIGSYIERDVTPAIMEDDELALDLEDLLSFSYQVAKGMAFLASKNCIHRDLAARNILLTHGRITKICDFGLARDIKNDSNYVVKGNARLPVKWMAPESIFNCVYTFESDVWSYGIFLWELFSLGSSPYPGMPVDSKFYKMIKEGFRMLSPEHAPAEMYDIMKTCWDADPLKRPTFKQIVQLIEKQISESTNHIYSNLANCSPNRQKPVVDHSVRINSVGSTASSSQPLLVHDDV
procedure_summary: Cellular testing of cKIT mutant inhibitors: phospho-Y307-cKIT Luminex assay in GIST430/654 cells
Assay type: cell-based
test_context: Table 1; cKIT autophosphorylation, compounds 45 min; read-out: GIST 430/654 IC50
pIC50: −log10 of the molar value.

compound	pIC50
COCCOc1cc2[nH]nc(-c3cc(-c4ccc(C(=O)N5CCN(C)CC5)cc4)no3)c2cc1Cl	7.13
COCCOc1cc2[nH]nc(-c3cc(-c4ccc(C(=O)N5CCC56COC6)c(F)c4)no3)c2cc1F	6.92
CCOc1ccc(-c2cc(-c3n[nH]c4cc(OCCOC)c(F)cc34)on2)cn1	5.36
COCCOc1cc2[nH]nc(-c3cc(-c4ccc(C(=O)N5CC(c6ccncc6)C5)cc4)no3)c2cc1F	7.62
COCCOc1cc2[nH]nc(-c3cc(-c4ccc(S(C)(=N)=O)cc4)no3)c2cc1F (centres unmarked)	6.82
COCCOc1cc2[nH]nc(-c3cc(-c4ccc(C(=O)N5CC(N6CCN(C)CC6)C5)cc4)no3)c2cc1F	6.80
COc1cc2[nH]nc(-c3cc(-c4ccc(C(=O)N5CCN(C6COC6)CC5)cc4)no3)c2cc1F	6.55
COCCOc1cc2[nH]nc(-c3cc(-c4ccc(N5CCC(O)CC5)cc4)no3)c2cc1F	7.00
